- measured_target: SOS1-KRAS (Homo sapiens, UniProt Q07889)
- Sequence (P01116 whole entry, one chain of several, further chain): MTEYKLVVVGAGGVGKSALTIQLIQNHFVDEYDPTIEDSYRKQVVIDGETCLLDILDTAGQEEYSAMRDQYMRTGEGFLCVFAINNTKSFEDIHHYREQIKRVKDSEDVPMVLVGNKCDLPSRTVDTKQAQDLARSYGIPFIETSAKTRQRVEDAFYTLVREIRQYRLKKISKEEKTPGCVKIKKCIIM
- experiment: Inhibition of SOS1/KRAS (unknown origin) protein-protein interaction by alpha screen assay
pIC50: −log10 of the molar value.
experimental_readout: pIC50

>>> print(df.to_string())
                         chemical_smiles                           measured_target  data_value
0  COc1cc2ncnc(N[C@H](C)c3ccccc3)c2cc1OC  SOS1-KRAS (Homo sapiens, UniProt Q07889)        5.82

###

- measured_target: Son of sevenless homolog 1 (Homo sapiens, UniProt Q07889, G12C)
- Sequence (Q07889 whole entry, looked up, stated change not applied): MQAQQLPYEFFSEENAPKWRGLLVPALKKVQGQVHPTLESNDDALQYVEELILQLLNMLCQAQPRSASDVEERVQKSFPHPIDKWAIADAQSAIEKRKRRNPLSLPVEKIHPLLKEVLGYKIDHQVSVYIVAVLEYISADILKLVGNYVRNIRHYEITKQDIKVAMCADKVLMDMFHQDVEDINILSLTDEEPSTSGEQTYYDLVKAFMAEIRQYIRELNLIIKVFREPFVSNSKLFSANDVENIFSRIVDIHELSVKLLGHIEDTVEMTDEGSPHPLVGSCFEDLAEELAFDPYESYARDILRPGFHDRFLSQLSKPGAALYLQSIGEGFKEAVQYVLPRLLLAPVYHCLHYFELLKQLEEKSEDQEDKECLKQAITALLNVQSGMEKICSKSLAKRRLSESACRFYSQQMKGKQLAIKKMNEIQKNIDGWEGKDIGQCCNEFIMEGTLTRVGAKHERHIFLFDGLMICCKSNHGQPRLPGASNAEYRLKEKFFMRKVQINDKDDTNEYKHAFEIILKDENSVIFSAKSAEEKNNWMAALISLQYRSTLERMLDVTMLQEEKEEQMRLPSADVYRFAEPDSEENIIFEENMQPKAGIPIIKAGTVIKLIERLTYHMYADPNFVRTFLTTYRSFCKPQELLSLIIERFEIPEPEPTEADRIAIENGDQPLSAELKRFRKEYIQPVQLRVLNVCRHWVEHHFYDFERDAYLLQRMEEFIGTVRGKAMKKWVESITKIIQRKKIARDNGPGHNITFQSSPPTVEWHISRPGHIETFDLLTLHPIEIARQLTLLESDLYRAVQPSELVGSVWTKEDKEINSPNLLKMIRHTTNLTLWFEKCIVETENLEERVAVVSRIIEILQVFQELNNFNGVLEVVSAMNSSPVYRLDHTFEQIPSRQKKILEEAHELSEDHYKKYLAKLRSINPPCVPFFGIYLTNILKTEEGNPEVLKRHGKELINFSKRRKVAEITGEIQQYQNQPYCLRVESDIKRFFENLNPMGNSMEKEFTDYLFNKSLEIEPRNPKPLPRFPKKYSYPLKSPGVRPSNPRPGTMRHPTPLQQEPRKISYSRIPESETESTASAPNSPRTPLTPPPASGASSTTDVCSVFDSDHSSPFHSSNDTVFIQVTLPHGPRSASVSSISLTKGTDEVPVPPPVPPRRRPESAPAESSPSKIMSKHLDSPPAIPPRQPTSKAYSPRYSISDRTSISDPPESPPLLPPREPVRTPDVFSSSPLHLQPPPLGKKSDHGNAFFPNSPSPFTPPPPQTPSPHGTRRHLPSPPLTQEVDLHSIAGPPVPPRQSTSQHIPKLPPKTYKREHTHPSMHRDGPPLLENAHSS
- experiment: Binding affinity to SOS1 in human NCI-H358 cells expressing KRAS G12C mutant assessed as dissociation constant
pKd: −log10 of the molar value.
Item-by-item account of pKd
experimental_readout: pKd

                            chemical_smiles  experimental_readout  data_value
0  Cc1cc(Cn2c(N3CC4(CNC4)C3)nc3c(N4CCN(C)CC4)cc(Cl)cc32)cc(C)c1F                   pKd        7.36
1  Cc1cc(Cn2c(N3CCNCC3)nc3ccc(Cl)cc32)cc(C)c1F                   pKd        6.34
2  Cc1cc(Cn2c(N3CC4(CNC4)C3)nc3c(-c4c(C)n[nH]c4C)cc(Cl)cc32)cc(C)c1F                   pKd        8.05

###

- measured_target: Son of sevenless homolog 1 (Homo sapiens, UniProt Q07889)
- experiment: Agonist activity at SOS1 in human HeLa cells expressing wild type KRAS assessed as increase in p-ERK level incubated for 30 mins by Western blot analysis
- Type: cell-based
pEC50: −log10 of the molar value.
experimental_readout: pEC50

In [3]: df
Out[3]:
                            chemical_smiles                           measured_target  experimental_readout  data_value
0  Cc1ccc2c([C@H](N)C(=O)N3CCC4(CC3)CCN4Cc3c[nH]c4ccc(Cl)cc34)c[nH]c2c1  Son of sevenless homolog 1 (Homo sapiens, UniProt Q07889)                 pEC50        6.10
1  N[C@H](C(=O)N1CCC2(CC1)CCN2Cc1c[nH]c2ccc(Cl)cc12)c1c[nH]c2cc(Cl)ccc12  Son of sevenless homolog 1 (Homo sapiens, UniProt Q07889)                 pEC50        6.10
2  N[C@@H](Cc1c[nH]c2ccccc12)C(=O)NC1CCN(Cc2c[nH]c3ccccc23)CC1  Son of sevenless homolog 1 (Homo sapiens, UniProt Q07889)                 pEC50        4.05

###

- measured_target: UniProt Q07889
- experiment: Agonist activity at SOS1 in human HeLa cells expressing wild type KRAS assessed as increase in p-ERK1/2 level measured for 30 mins by Western blot analysis
- Format: cell-based
pEC50: −log10 of the molar value. Starred links: 1 amine or outer side, 2 acyl side, 3 side chain; linkers in the order of their positions; H or OH if unused. Positions of bridges follow the written chain, without caps; N, C: chain ends. Non-standard residues stand in square brackets, D forms with d. Residues, ends and D or L forms follow the SMILES beside them. Triazole bridges read from a SMILES are 1,4-linked. X1 = N=C(N)Nc1ccc([C@@H](N[*:1])C(=O)[*:2])cc1; Lys(N3) = [N-]=[N+]=NCCCC[C@H](N)C(=O)O; Pra = C#CC[C@H](N)C(=O)O

molecule	measured_target	pEC50
CC(C)[C@@H]1NC(=O)[C@H](C)NC(=O)[C@H](Cc2c[nH]c3ccccc23)NC(=O)[C@@H]2CCCN2C(=O)[C@H](Cc2c[nH]cn2)NC(=O)[C@@H](c2ccc(NC(=N)N)cc2)NC(=O)[C@@H](N)CCCCn2cc(nn2)C[C@@H](C(N)=O)NC1=O (H-[Lys(N3)][X1]HPWAV[Pra]-NH2; triazole 1-8)	UniProt Q07889	4.06
CC(C)[C@@H]1NC(=O)[C@H](CO)NC(=O)[C@H](Cc2c[nH]c3ccccc23)NC(=O)[C@@H]2CCCN2C(=O)[C@H](Cc2c[nH]cn2)NC(=O)[C@@H](c2ccc(NC(=N)N)cc2)NC(=O)[C@@H](N)CCCCNC(=O)C[C@@H](C(N)=O)NC1=O (H-K[X1]HPWSVD-NH2; lactam 1-8)	UniProt Q07889	4.44
CC(C)[C@@H]1NC(=O)[C@H](CO)NC(=O)[C@H](Cc2c[nH]c3ccccc23)NC(=O)[C@@H]2CCCN2C(=O)[C@H](Cc2c[nH]cn2)NC(=O)[C@@H](Cc2ccc(NC(=N)N)cc2)NC(=O)[C@@H](N)CCCCNC(=O)C[C@@H](C(N)=O)NC(=O)[C@H](C)NC1=O	UniProt Q07889	4.54
CC(C)[C@H](NC(=O)[C@H](CO)NC(=O)[C@H](Cc1c[nH]c2ccccc12)NC(=O)[C@@H]1CCCN1C(=O)[C@H](Cc1c[nH]cn1)NC(=O)[C@H](N)CCCNC(=N)N)C(=O)N[C@@H](C)C(N)=O	UniProt Q07889	3.78
